test: pharmacokinetics of 16 ginsenosides in rat plasma after oral administration of RGS; format: in vivo; conditions: SD, rat, in vivo, po, 100 mg/kg
Assign T1/2 to each entry below.
Provide only the numeric value, understood in h.

Which T1/2 value is on record for CC(C)=CCC=C(C)C1CCC2(C)C1C(O)CC1C3(C)CCC(OC4OC(CO)C(O)C(O)C4O)C(C)(C)C3CCC12C (stereo not drawn) ?
13.6

What do we get for CC(C)=CCC[C@](C)(O)[C@H]1CC[C@]2(C)[C@@H]1[C@H](O)C[C@@H]1[C@@]3(C)CC[C@H](O)C(C)(C)[C@@H]3[C@@H](O[C@@H]3O[C@H](CO)[C@@H](O)[C@H](O)[C@H]3O[C@@H]3O[C@@H](C)[C@H](O)[C@@H](O)[C@H]3O)C[C@]12C [Rg2, Ginsenoside Rg2] ?
18.9

What do we get for CC(C)=CCCC(C)(O)C1CCC2(C)C1C(O)CC1C3(C)CCC(O)C(C)(C)C3C(OC3OC(CO)C(O)C(O)C3OC3OC(CO)C(O)C(O)C3O)CC12C (stereo not drawn) ?
7.5

###

experiment: pharmacokinetics of 16 ginsenosides in rat plasma after oral administration of RGS; assay type: in vivo; conditions: SD, rat, plasma, po, 100 mg/kg, normal rats, oral RGS single dose 100 mg/kg, plasma, mean ± S.D., n = 5; read-out: MRT
measureName: MRT (h)
Provide only the numeric value, understood in h.

Which MRT value is on record for CC(C)=CCCC(C)(OC1OC(COC2OCC(O)C(O)C2O)C(O)C(O)C1O)C1CCC2(C)C1C(O)CC1C3(C)CCC(OC4OC(CO)C(O)C(O)C4OC4OC(CO)C(O)C(O)C4O)C(C)(C)C3CCC12C (stereo not drawn) ?
8.6

What do we get for CC(C)=CCCC(C)(OC1OC(CO)C(O)C(O)C1O)C1CCC2(C)C1C(O)CC1C3(C)CCC(OC4OC(CO)C(O)C(O)C4OC4OC(CO)C(O)C(O)C4O)C(C)(C)C3CCC12C (stereo not drawn) ?
8.6

What do we get for C=C(CCC=C(C)C)C1CCC2(C)C1C(O)CC1C3(C)CCC(OC4OC(CO)C(O)C(O)C4OC4OC(CO)C(O)C(O)C4O)C(C)(C)C3CCC12C (stereo not drawn) ?
21.3

###

assay: pharmacokinetics of 16 ginsenosides in rat plasma after oral administration of RGS; type: in vivo; settings: SD, rat, in vivo, po, 100 mg/kg, C Max
measureName: Cmax (ng/g)
Provide only the numeric value, understood in ng/g.

Which Cmax value is on record for CC(C)=CCC[C@](C)(O)[C@H]1CC[C@]2(C)[C@@H]1[C@H](O)C[C@@H]1[C@@]3(C)CC[C@H](O)C(C)(C)[C@@H]3[C@@H](O[C@@H]3O[C@H](CO)[C@@H](O)[C@H](O)[C@H]3O[C@@H]3O[C@@H](C)[C@H](O)[C@@H](O)[C@H]3O)C[C@]12C [Rg2, Ginsenoside Rg2] ?
15.3

What do we get for CC(C)=CCC=C(C)C1CCC2(C)C1C(O)CC1C3(C)CCC(OC4OC(CO)C(O)C(O)C4O)C(C)(C)C3CCC12C (stereo not drawn) ?
24.3

What do we get for C=C(CCC=C(C)C)C1CCC2(C)C1C(O)CC1C3(C)CCC(O)C(C)(C)C3C(OC3OC(CO)C(O)C(O)C3O)CC12C (stereo not drawn) ?
14.2

What do we get for CC(C)=CCC=C(C)C1CCC2(C)C1C(O)CC1C3(C)CCC(O)C(C)(C)C3C(OC3OC(CO)C(O)C(O)C3O)CC12C (stereo not drawn) ?
35.6

What do we get for CC(C)=CCCC(C)(O)C1CCC2(C)C1C(O)CC1C3(C)CCC(OC4OC(CO)C(O)C(O)C4OC4OC(CO)C(O)C(O)C4O)C(C)(C)C3CCC12C (stereo not drawn) ?
29.6

What do we get for CC(C)=CCCC(C)(O)C1CCC2(C)C1C(O)CC1C3(C)CCC(O)C(C)(C)C3C(OC3OC(CO)C(O)C(O)C3OC3OC(CO)C(O)C(O)C3O)CC12C (stereo not drawn) ?
17.6
